- SUBJECT_OF_TEST: HIV-1 protease (Human immunodeficiency virus type 1 group M subtype B)
- PROTOCOL_DETAILS: biochemical
- CONDITION_INFO: read-out: HIV-1 Protease % Inhib, dose 0.123 uM
Ranges used to classify inhibition at 0.123 µM: bucket A: < 30%; bucket B: ≥ 30% and < 50%; bucket C: ≥ 50%

- COMPOUND: "O=c1oc2c(c(O)c1C(c1ccccc1)C1CC1)CCCCCC2CC1CCCO1 (single isomer, unassigned)"
  LABEL_CLASS: "bucket A"
- COMPOUND: "CCOC(=O)Nc1cccc(C(c2c(O)c3c(oc2=O)CCCCCC3)C2CC2)c1 (stereo not drawn)"
  LABEL_CLASS: "bucket A"
- COMPOUND: "Nc1ccc(S(=O)(=O)Nc2cccc(C(c3c(O)c4c(oc3=O)CCCCCC4)C3CC3)c2)cc1 (stereo not drawn)"
  LABEL_CLASS: "bucket A"
- COMPOUND: "COCCC1CCCCCc2c1oc(=O)c(C(c1ccccc1)C1CC1)c2O (stereo not drawn)"
  LABEL_CLASS: "bucket A"
- COMPOUND: "O=c1oc2c(c(O)c1C(c1cccc(NS(=O)(=O)c3ccccc3Cl)c1)C1CC1)CCCCCC2 (stereo not drawn)"
  LABEL_CLASS: "bucket C"
- COMPOUND: "O=c1oc2c(c(O)c1C(c1cccc(NS(=O)(=O)c3cccc(Cl)c3Cl)c1)C1CC1)CCCCCC2 (stereo not drawn)"
  LABEL_CLASS: "bucket B"
- COMPOUND: "Cn1cnc(S(=O)(=O)Nc2cccc([C@@H](c3c(O)c4c(oc3=O)CCCCCC4)C3CC3)c2)c1"
  LABEL_CLASS: "bucket C"
- COMPOUND: "O=c1oc2c(c(O)c1C(c1cccc(NS(=O)(=O)c3cccc(Cl)c3)c1)C1CC1)CCCCCC2 (stereo not drawn)"
  LABEL_CLASS: "bucket C"
- COMPOUND: "CCCCOc1ccc(S(=O)(=O)Nc2cccc(C(c3c(O)c4c(oc3=O)CCCCCC4)C3CC3)c2)cc1 (stereo not drawn)"
  LABEL_CLASS: "bucket B"
- COMPOUND: "CC(C)CC(c1cccc(NS(=O)(=O)c2ccc(F)cc2)c1)c1c(O)c2c(oc1=O)CCCCCC2 (stereo not drawn)"
  LABEL_CLASS: "bucket C"
- COMPOUND: "O=c1oc2c(c(O)c1C(c1cccc(NS(=O)(=O)c3ccc(-c4ccccn4)s3)c1)C1CC1)CCCCCC2 (stereo not drawn)"
  LABEL_CLASS: "bucket B"
- COMPOUND: "O=c1oc2c(c(O)c1C(c1cccc(NS(=O)(=O)c3cccc(NO)c3)c1)C1CC1)CCCCCC2 (stereo not drawn) [Example 353 (Second Title Compound)]"
  LABEL_CLASS: "bucket C"
- COMPOUND: "O=C(Nc1cccc(S(=O)(=O)Nc2cccc(C(c3c(O)c4c(oc3=O)CCCCCC4)C3CC3)c2)c1)c1ccccc1 (stereo not drawn)"
  LABEL_CLASS: "bucket A"
- COMPOUND: "CCC(O)C1CCCCCc2c1oc(=O)c(C(c1ccccc1)C1CC1)c2O (stereo not drawn)"
  LABEL_CLASS: "bucket C"

---

- SUBJECT_OF_TEST: HIV-1 protease (Human immunodeficiency virus type 1 group M subtype B, UniProt P04585)
- PROTOCOL_DETAILS: biochemical
- CONDITION_INFO: read-out: HIV-1 FITC KI
Below, each entry is listed with its recorded Ki.
OBSERVED_PROPERTY: Ki (nM)

- COMPOUND: "O=C(NCc1ccc(C(c2c(O)c3c(oc2=O)CCCCCC3)C2CC2)o1)OCc1ccccc1 (stereo not shown)"
  UNITS: "nM"
  OBSERVED_VALUE: 21.7
- COMPOUND: "N#Cc1ccc(S(=O)(=O)Nc2cccc(C(c3c(O)c4c(oc3=O)CCCCCC4)C3CC3)c2)cc1 (stereo not shown)"
  UNITS: "nM"
  OBSERVED_VALUE: 0.62
- COMPOUND: "CCC(c1ccc(C)s1)c1c(O)c2c(oc1=O)CCCCCC2 (stereo not shown)"
  UNITS: "nM"
  OBSERVED_VALUE: 39.1
- COMPOUND: "O=c1oc2c(c(O)c1C(c1cccc(NS(=O)(=O)Nc3ccccc3)c1)C1CC1)CCCCCC2 (stereo not shown)"
  UNITS: "nM"
  OBSERVED_VALUE: 7.3

---

molecules and their reported inhibition at 10 µM
- SUBJECT_OF_TEST: HIV-1 protease (Human immunodeficiency virus type 1 group M subtype B, UniProt P04585)
- PROTOCOL_DETAILS: biochemical
- CONDITION_INFO: read-out: HIV-1 Protease % Inhib, dose 10.000 uM
OBSERVED_PROPERTY: inhibition at 10 µM

- MOLECULE: "CC(C)C(c1cccc(NS(=O)(=O)c2ccc(F)cc2)c1)c1c(O)c2c(oc1=O)CCCCCC2 (stereo not drawn) [Example 418]"
  OBSERVED_PROPERTY: "inhibition at 10 µM"
  OBSERVED_VALUE: "119%"
- MOLECULE: "CCC(Cc1ccccc1)c1c(O)c2ccccc2oc1=O (stereo not drawn) [Example 144]"
  OBSERVED_PROPERTY: "inhibition at 10 µM"
  OBSERVED_VALUE: "77%"
- MOLECULE: "CCCC(c1ccccc1)c1c(O)c2c(oc1=O)CCCCCC2 (stereo not drawn) [Example 369]"
  OBSERVED_PROPERTY: "inhibition at 10 µM"
  OBSERVED_VALUE: "111%"
- MOLECULE: "CC(C)CC(c1cccc(NS(=O)(=O)c2ccc(C#N)cc2)c1)c1c(O)c2c(oc1=O)CCCCCC2 (stereo not drawn) [Example 426]"
  OBSERVED_PROPERTY: "inhibition at 10 µM"
  OBSERVED_VALUE: "102%"
- MOLECULE: "CCCC(c1ccccc1)c1c(O)c2ccc(OC)cc2oc1=O (stereo not drawn) [Example 37]"
  OBSERVED_PROPERTY: "inhibition at 10 µM"
  OBSERVED_VALUE: "59.5%"
- MOLECULE: "CCC(c1ccccc1)c1c(O)c2ccc(C(F)(F)F)cc2oc1=O (stereo not drawn) [Example 86]"
  OBSERVED_PROPERTY: "inhibition at 10 µM"
  OBSERVED_VALUE: "56.9%"
- MOLECULE: "O=c1oc2c(c(O)c1[C@H](c1ccccc1)C1CC1)CCCCCC2 [Example 229]"
  OBSERVED_PROPERTY: "inhibition at 10 µM"
  OBSERVED_VALUE: "108%"
- MOLECULE: "CC(O)CC1CCCCCc2c1oc(=O)c(C(c1ccccc1)C1CC1)c2O (stereo not drawn) [Example 162]"
  OBSERVED_PROPERTY: "inhibition at 10 µM"
  OBSERVED_VALUE: "102%"
- MOLECULE: "CCC(c1cccc(NC(=O)CC(C)(C)N)c1)c1c(O)c2ccccc2oc1=O (stereo not drawn) [Example 48]"
  OBSERVED_PROPERTY: "inhibition at 10 µM"
  OBSERVED_VALUE: "< 10%"

---

- SUBJECT_OF_TEST: HIV-1 protease (Human immunodeficiency virus type 1 group M subtype B)
- PROTOCOL_DETAILS: biochemical
- CONDITION_INFO: read-out: HIV-1 Protease % Inhib, dose 1.100 uM
OBSERVED_PROPERTY: inhibition at 1.1 µM

- MOLECULE: "N#Cc1ccccc1S(=O)(=O)Nc1cccc(C(c2c(O)c3c(oc2=O)CCCCCC3)C2CC2)c1 (stereo not drawn)"
  SUBJECT_OF_TEST: "HIV-1 protease (Human immunodeficiency virus type 1 group M subtype B)"
  OBSERVED_VALUE: "94.9%"
- MOLECULE: "O=c1oc2c(c(O)c1[C@H](c1ccccc1)C1CC1)CCCCCC2"
  SUBJECT_OF_TEST: "HIV-1 protease (Human immunodeficiency virus type 1 group M subtype B)"
  OBSERVED_VALUE: "88.8%"
- MOLECULE: "COc1ccc(S(=O)(=O)Nc2cccc(C(c3c(O)c4c(oc3=O)CCCCCC4)C3CC3)c2)cc1 (stereo not drawn)"
  SUBJECT_OF_TEST: "HIV-1 protease (Human immunodeficiency virus type 1 group M subtype B)"
  OBSERVED_VALUE: "128%"
- MOLECULE: "O=c1oc2c(c(O)c1C(c1ccccc1)C1CC1)CCCCCC2C(O)C1CC1 (stereo not drawn)"
  SUBJECT_OF_TEST: "HIV-1 protease (Human immunodeficiency virus type 1 group M subtype B)"
  OBSERVED_VALUE: "82.6%"
- MOLECULE: "O=c1oc2c(c(O)c1C(c1cccc(NS(=O)(=O)c3ccc(F)cc3)c1)C1CC1)CCCCCC2 (stereo not drawn)"
  SUBJECT_OF_TEST: "HIV-1 protease (Human immunodeficiency virus type 1 group M subtype B)"
  OBSERVED_VALUE: "96.2%"
- MOLECULE: "O=c1oc2c(c(O)c1C(c1cccc(NS(=O)(=O)c3cccc4cccnc34)c1)C1CC1)CCCCCC2 (stereo not drawn)"
  SUBJECT_OF_TEST: "HIV-1 protease (Human immunodeficiency virus type 1 group M subtype B)"
  OBSERVED_VALUE: "95.7%"
- MOLECULE: "CC(C)(C)c1ccc(S(=O)(=O)Nc2cccc(C(c3c(O)c4c(oc3=O)CCCCCC4)C3CC3)c2)cc1 (stereo not drawn)"
  SUBJECT_OF_TEST: "HIV-1 protease (Human immunodeficiency virus type 1 group M subtype B)"
  OBSERVED_VALUE: "76.9%"
- MOLECULE: "O=c1oc2c(c(O)c1C(c1cccc(NS(=O)(=O)c3cccc(O)c3)c1)C1CC1)CCCCCC2 (stereo not drawn)"
  SUBJECT_OF_TEST: "HIV-1 protease (Human immunodeficiency virus type 1 group M subtype B)"
  OBSERVED_VALUE: "101%"
- MOLECULE: "O=c1oc2c(c(O)c1C(c1cccc(NS(=O)(=O)c3cccc(NS(=O)(=O)CCCCl)c3)c1)C1CC1)CCCCCC2 (stereo not drawn)"
  SUBJECT_OF_TEST: "HIV-1 protease (Human immunodeficiency virus type 1 group M subtype B)"
  OBSERVED_VALUE: "101%"

Hey, just so you know, these numbers are from patent US5686486A.
